- Experimental system: FFAR (R10; GPR40) (Homo sapiens, UniProt O14842)
- Construct: expressed in transfected cells; host or cells: HFF11 reporter cells (HeLa-based), line HFF11.pR10
- Sequence (O14842 whole entry): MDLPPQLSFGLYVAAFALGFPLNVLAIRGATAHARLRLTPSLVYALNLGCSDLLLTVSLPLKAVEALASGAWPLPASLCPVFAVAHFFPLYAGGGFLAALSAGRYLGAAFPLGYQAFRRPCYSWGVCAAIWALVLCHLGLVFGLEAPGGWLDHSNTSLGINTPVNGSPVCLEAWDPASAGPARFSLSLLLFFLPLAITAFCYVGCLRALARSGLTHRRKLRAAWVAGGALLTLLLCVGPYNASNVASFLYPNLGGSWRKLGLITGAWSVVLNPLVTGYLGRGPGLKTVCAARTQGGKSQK
- Protocol: HFF11 reporter cell assay, HFF11.pR10 cells expressing FFAR
- Assay type: cell-based
- Measurement conditions: HFF11 reporter cells expressing FFAR, result in words
Property: activation of FFAR

Recorded activation of FFAR, per entry:
CC(C)(CCCCCCCCCCC(C)(C)CC(=O)O)CC(=O)O :: strongly activated FFAR
CC1(COc2ccc(CC3SC(=O)NC3=O)cc2)CCCCC1 (racemic) :: strongly activated FFAR
CCCCC/C=C\C=C\C(O)CCCCCCCC(=O)O (racemic) :: activated FFAR
CCOC(=O)C(C)(C)Oc1ccc(Cl)cc1 [Clofibrate] :: inactive
COc1ccc(Cl)cc1C(=O)NCCc1ccc(S(=O)(=O)NC(=O)NC2CCCCC2)cc1 [Glibenclamid, Glibenclamide] :: inactive

Now take the following molecule into account.
Qu. Query (molecule): CCCCC/C=C\C=C\CCCCCCCCC(=O)O [CLA, trans-10, cis-12-octadecanoic acid] ; field requested: activation of FFAR
Ans. activated FFAR

----------
- Experimental system: FFAR (R10; GPR40) (Homo sapiens)
- Construct: expressed in transfected cells; host or cells: HFF11 reporter cells (HeLa-based), line HFF11.pR10
- Protocol: HFF11 reporter cell assay, HFF11.pR10 cells expressing FFAR
- Format: cell-based
- Measurement conditions: FFAR response to free fatty acids, HFF11.pR10 reporter cell line; read-out: Mean EC50
Property: EC50 (µM)

Recorded EC50, per entry:
CCCCCCCC/C=C\CCCCCCCC(=O)O [Oleic acid, cis-9-octadecanoic acid] :: 123
CCCCCC/C=C\CCCCCCCC(=O)O :: 100
CCCCC/C=C\C=C\CCCCCCCCC(=O)O [CLA, trans-10, cis-12-octadecanoic acid] :: 77.3
CCCCCCCC/C=C/CCCCCCCC(=O)O [Elaidic acid, trans-9-octadecanoic acid] :: 120

[A] CCCCCCC(O)C/C=C\CCCCCCCC(=O)O (stereo not drawn) [Ricinoleic acid, 12-hydroxy, cis 9-octadecenoic acid]
[B] CCCCC/C=C\C=C\C(O)CCCCCCCC(=O)O (racemic)
Qu. // pick larger EC50 from pair: A vs B Provide the label of your selected option as the answer.
Ans. A

[1] CCCCCCC(O)CCCCCCCCCCC(=O)O (centres unmarked) [Hydroxystearic acid, 12-hydroxyoctadecanoic acid]
[2] CCCCCCCCCCCC(=O)O
Qu. Please indicate which item has the smaller measured EC50: 1 versus 2 Provide the label of your selected option as the answer.
Ans. 1
